Tested on: S. aureus DPC5246
Type: cell-based, Staphylococcus aureus
Conditions: DPC5246, pH 6.8
Ends that are not written are not given here.
Recorded endpoint: Activity (Minimum Inhibitory Concentration, MIC) (µM)
Numbers only, in µM.

Input line: Specify reported Activity (Minimum Inhibitory Concentration, MIC) for the substance shown: KRKKHRSRVYNNGMPTGMYRWC-OH [C7S]
Output line: 63

Input line: Specify reported Activity (Minimum Inhibitory Concentration, MIC) for the substance shown: KRKKHRCRVYNNGMPTGMYRWS [C22S]
Output line: 250

Input line: Specify reported Activity (Minimum Inhibitory Concentration, MIC) for the substance shown: KRKKHRARVYNNGMPTGMYRWC-OH [C7A]
Output line: 16

Return reported Activity (Minimum Inhibitory Concentration, MIC) values for all items listed beneath this line.
1. KRKKHRSRVYNNGMPTGMYRWS [C7S-C22S]
2. KRKKHRCRVYNNGMPTGMYRWA-OH [C22A]
3. KRKKHRARVYNNGMPTGMYRWA [C7A-C22A]

Output line:
1: 63; 2: 63; 3: 16
